src = PubChem BioAssay (NCI)

- Tested on: HS 578T breast
- Test Protocol: NCI-60 one-dose screen, 48 h
- Test Settings: 10 µM unless noted
The panel holds about 83,000 compounds, 20% with a hit somewhere; the sample as a whole holds those more often. Calls of active or inactive are those of the source. Rule for the calls: active = growth percent below 10; inactive = the rest.
Reply using exactly one outcome from active, inactive

>>> df
                                   compound  answer_label
0  CC1CCN(S(=O)(=O)c2ccc(S(=O)(=O)N3CCCC(c4nc5c(nnn5Cc5cccc(Cl)c5)c(=O)[nH]4)C3)cc2)CC1 (stereo not drawn)      inactive
1              CN(C)c1ccc(C(=O)OCCCCCCl)cc1      inactive
2  COc1cc2nc3cc([N+](=O)[O-])ccc3c(NCCNCC(C)O)c2cc1OC (stereo not drawn)        active

Kindly provide the recorded test outcome for the following compound: `c1ccc([P+](c2ccccc2)(c2ccccc2)c2ccc3c4ccc([P+](c5ccccc5)(c5ccccc5)c5ccccc5)c5cccc(c6cccc2c63)c54)cc1` inactive

For `COc1ccc(/C=C(\C#N)n2nnc3ccc(Cl)cc32)cc1` , what call appears in the results of this test? inactive

Given Cc1nc2sc(C(=O)Nc3ccc(Br)cc3)c(N)c2cc1C(O)c1ccccc1 (stereo not drawn) , state the outcome it received in this test. inactive

---

- System: SK-MEL-2 melanoma
- Test Protocol: NCI-60 one-dose screen, 48 h
- Test Settings: 10 µM unless noted
This is part of a sample that, as a whole, favours compounds with a hit. Of some 83,000 tested, about 20% had one in any assay. Active and inactive are the calls of the source. Rule for the calls: active = growth percent below 10; inactive = the rest.
# valid calls are active, inactive; nothing else

These solved cases illustrate the format of a correct answer.
In [3]: df
Out[3]:
                                   compound  answer_label
0  Cn1cc(-c2csc(-c3c[nH]c4ccc(Br)cc34)n2)c2ccnc(Cl)c21      inactive
1  COC(CC(F)F)c1cn(S(=O)(=O)c2ccc(C)cc2)c2ccccc12 (stereo not drawn)      inactive
2  CCOC(=O)c1c(NC(=O)c2ccc(Cl)cc2)sc2c(CN(C)C)c(O)ccc12      inactive
3  Cn1cc(-c2csc(-c3cn(C(=O)OC(C)(C)C)c4ccc(Br)cc34)n2)c2ccnc(Cl)c21      inactive
4  COc1cc2c(cc1OCCCN1CCN(CCCOc3cc4c(cc3OC)C(=O)N3CC(F)(F)C[C@H]3C=N4)CC1)N=C[C@@H]1CC(F)(F)CN1C2=O      inactive

Could you please tell me the result logged for `N=C(N)c1ccc(-c2ccc(-c3ccc(Cl)cc3Cl)s2)cc1` in this assay? inactive

---

- System: BT-549 breast
- Test Protocol: NCI-60 one-dose screen, 48 h (100 = growth as untreated, 0 = no growth, -100 = all killed)
- Test Settings: 10 µM unless noted
About 83,000 compounds went through this panel and 20% of them were active in at least one assay; those are over-represented in the sample as a whole.
Could you label it rule met if measured growth is 90% or higher, and rule not met otherwise?

>>> df
                                   compound  answer_label
0  N#Cc1c(-c2ccc(Cl)cc2)nc(NN2C(=O)c3ccccc3C2=O)nc1N1CCOCC1      rule met
1    CSc1nc2ccccc2cc1/C=[N+](\[O-])c1ccccc1  rule not met

Reported growth at or above 90%? O=C(NCc1ccc(Cl)cc1Cl)C1CCC(=O)N1c1cccs1 (stereo not given) rule not met

Does CCCCCCCCCCC(CN(CC)CC)C(O)c1ccccc1 (stereo not given) have a reported growth of at least 90%? rule not met

Please tell me: is the compound `Cc1ccc(NC(=O)c2sc3nc(C)c(Br)c(C)c3c2N)cc1` at or over 90% in terms of growth? rule not met

Entry `Cn1c(I)c(C#CCO[Si](C)(C)C(C)(C)C)c(=O)[nH]c1=O` : is its growth no less than 90%? rule met

Textbook exercise: given the entry `CCN(CC)CCCCCNc1cc(OC(=O)c2ccc(Cl)cc2)cc2cccnc12` , state whether its growth is greater than or equal to 90%. rule met

---

- System: OVCAR-4 ovarian
- Test Protocol: NCI-60 one-dose screen, 48 h (100 = growth as untreated, 0 = no growth, -100 = all killed)
- Test Settings: 10 µM unless noted
The panel holds about 83,000 compounds, 20% with a hit somewhere; the sample as a whole holds those more often.
Reported values of growth for individual entries
Unit % implied. Number only.

Worked cases, answers included:
>>> print(df.to_string())
                                   molecule  result_value
0  CC/C=C\C[C@H](O)C/C=C1/C(=O)C=C[C@@H]1C/C=C\CCCC(=O)N(C)C          43.9
1  Cc1ccc2c(Cn3cc(CSc4nc5ccccc5o4)nn3)cc(=O)oc2c1           107
2  O=C(O)c1cn(C2CC2)c2cc(N3CCN(Cc4ccc5ccccc5c4O)CC3)c(F)cc2c1=O          32.5

Find the recorded growth belonging to `O=c1scc(-c2ccc(C(F)(F)F)cc2)s1` and report it. 76.8

Item under review: `c1cc2c(ccc3[nH]c(-c4ccc5[nH]ncc5c4)c4c(c32)CCCC4)n1` . Reported growth? 80.7

---

- Test system: NCI-H226 lung
- Test Protocol: NCI-60 one-dose screen, 48 h (100 = growth as untreated, 0 = no growth, -100 = all killed)
- Test Settings: 10 µM unless noted
About 83,000 compounds went through this panel and 20% of them were active in at least one assay; those are over-represented in the sample as a whole.
Endpoint Name: growth (%)
Quick reminder: number only, in %, skip the unit.

Worked set:
In [3]: df
Out[3]:
                                   molecule  endpoint_name  result_value
0           O=C(c1ccccc1)c1ccc(C2CCCCC2)cc1         growth          92.4
1  CCCc1c(OC(=O)c2ccccc2)nc2[nH]c(=O)sc2c1C         growth          89.9

Endpoint output: growth of `CCn1cc(C(=O)NNC(=S)Nc2ccc(C)cc2)c(=O)c2ccc(C)nc21` . Value? 90.1

---

- Test system: A498 renal
- Test Protocol: NCI-60 one-dose screen, 48 h (100 = growth as untreated, 0 = no growth, -100 = all killed)
- Test Settings: 10 µM unless noted
Compounds without any hit were thinned out: in the full panel of roughly 83,000, 20% have a hit. The source made the active and inactive calls. Rule for the calls: active = growth percent below 10; inactive = the rest.
Endpoint Name: growth

In [3]: df
Out[3]:
                                   compound      result_value
0  O=C(/C=C(/C=C/c1ccc2[nH]ccc2c1)OB(F)F)/C=C/c1ccc2[nH]ccc2c1  32.5% (inactive)
1  O=C(CN1C(=O)NC2NC(=O)NC21)N/N=C/c1ccccc1[N+](=O)[O-] (stereo not drawn)   104% (inactive)

Note: attention shifts to another entry.
Bench note: what growth did `OCCn1cc(-c2nc(-c3c[nH]c4ncccc34)cs2)c2cc(F)ccc21` show? 23% (inactive)

---

- Tested on: SN12C renal
- Test Protocol: NCI-60 one-dose screen, 48 h
- Test Settings: 10 µM unless noted
This is part of a sample that, as a whole, favours compounds with a hit. Of some 83,000 tested, about 20% had one in any assay. Active and inactive are the calls of the source. Rule for the calls: active = growth percent below 10; inactive = the rest.
Outcomes you can answer with include only these: y = active, n = inactive

Examples from the recorded data:
>>> df
                                   molecule  answer_label
0  COc1ccc(C(=O)/C=C/c2c(C(F)(F)F)nc3ccccn23)cc1OC             n
1  CC/C(=C(/c1ccc(Cl)cc1)c1ccc(OCCN2CCCCC2)cc1)c1ccc(OC)cc1             n
2  Nc1ncnc2c1N=C(c1ccc(Br)cc1)CC(c1cccc(Nc3ccnc4cc(C(F)(F)F)ccc34)c1)N2 (centres undefined)             n
3                      C1CN(SSN2CCOCC2)CCO1             y
4  COc1ccc(/C=C/C(=O)c2ccc(Nc3ccnc4cc(Cl)ccc34)cc2)cc1             n

# lookup: test call for `Cc1cc(N2CCN(CC(=O)Nc3ccc4c(ccn4C)c3)CC2)nc(N2CCCCCC2)n1` n

Short answer needed: outcome of this test for `N=C(N)c1ccc(-c2ccc(-c3ccccc3)o2)cc1` ? y

Test call for this molecule, please: `Clc1cc(Cl)c(Cl)c(-c2nnc(SCc3ccncc3Br)o2)c1` n

# outcome recorded in this test, key = `CC/C(=C(/c1ccc(Cl)cc1)c1ccc(OCCN(C)C)cc1)c1ccc(Cl)cc1` n

Tell me the assay call for `O=C(Nc1cccc2ccccc12)NC1CC1` please. n
